- Test system: NCI-H226
- assay overview: NCI 60 five-dose screen NCI-H226
- Type: cell-based
- condition notes: Homo sapiens, five-dose, read-out: LC50 (the source's name) (converted)
measurement type: CC50

FC(F)(F)c1cc2c(Cl)ncnc2n1CCC1CCOCC1: 58.9 µM
FC(F)(F)c1cc2c(Cl)ncnc2n1CCN1CCCCC1: ≥ 100 µM
FC(F)(F)CN1CCN(CCn2c(C(F)(F)F)cc3c(Cl)ncnc32)CC1: ≥ 100 µM

## Task Requested read-out CC50, target or system NCI-H226, entry `FC(F)(F)c1cc2c(Cl)ncnc2n1CCN1CCOCC1`
## Result ≥ 100 µM

## Task Requested read-out CC50, target or system NCI-H226, entry OC1CCC(Cn2c(C(F)(F)F)cc3c(Cl)ncnc32)CC1 (centres unmarked)
## Result ≥ 100 µM

====

- Test system: DU-145
- assay overview: NCI 60 five-dose screen DU-145
- Format: cell-based
- condition notes: Homo sapiens, five-dose
Note to self: GI50 under 10 µM means true, ties and anything higher get false.

## Task Hi there! Is GI50 for OC1CCC(Cn2c(C(F)(F)F)cc3c(Cl)ncnc32)CC1 (centres unmarked) below 10 µM, do you know?
## Result true

## Task Hi there! Is GI50 for `FC(F)(F)c1cc2c(Cl)ncnc2n1CCC1CCOCC1` below 10 µM, do you know?
## Result true

## Task Hi there! Is GI50 for `FC(F)(F)c1cc2c(Cl)ncnc2n1CCN1CCCCC1` below 10 µM, do you know?
## Result false

## Task Hi there! Is GI50 for `FC(F)(F)c1cc2c(Cl)ncnc2n1CCN1CCOCC1` below 10 µM, do you know?
## Result false

## Task Hi there! Is GI50 for `FC(F)(F)CN1CCN(CCn2c(C(F)(F)F)cc3c(Cl)ncnc32)CC1` below 10 µM, do you know?
## Result false

====

- Test system: NCI/ADR-RES
- assay overview: NCI 60 five-dose screen NCI/ADR-RES
- Assay type: cell-based
- condition notes: Homo sapiens, five-dose, read-out: LC50 (the source's name) (converted)
measurement type: CC50

OC1CCC(Cn2c(C(F)(F)F)cc3c(Cl)ncnc32)CC1 (centres unmarked): ≥ 100 µM

## Task Requested read-out CC50, target or system NCI/ADR-RES, entry `FC(F)(F)CN1CCN(CCn2c(C(F)(F)F)cc3c(Cl)ncnc32)CC1`
## Result ≥ 100 µM

## Task Requested read-out CC50, target or system NCI/ADR-RES, entry `FC(F)(F)c1cc2c(Cl)ncnc2n1CCN1CCOCC1`
## Result ≥ 100 µM

## Task Requested read-out CC50, target or system NCI/ADR-RES, entry `FC(F)(F)c1cc2c(Cl)ncnc2n1CCN1CCCCC1`
## Result ≥ 100 µM

## Task Requested read-out CC50, target or system NCI/ADR-RES, entry `FC(F)(F)c1cc2c(Cl)ncnc2n1CCC1CCOCC1`
## Result 72.4 µM

====

- System: A498
- assay overview: NCI 60 five-dose screen A498
- Format: cell-based
- condition notes: Homo sapiens, five-dose, read-out: LC50 (the source's name) (converted)
Reported values of CC50 for individual entries

FC(F)(F)c1cc2c(Cl)ncnc2n1CCC1CCOCC1: 55 µM
FC(F)(F)c1cc2c(Cl)ncnc2n1CCN1CCOCC1: ≥ 100 µM
OC1CCC(Cn2c(C(F)(F)F)cc3c(Cl)ncnc32)CC1 (centres unmarked): ≥ 100 µM

## Task Fill in: CC50 of `FC(F)(F)c1cc2c(Cl)ncnc2n1CCN1CCCCC1` is ___
## Result ≥ 100 µM

## Task Fill in: CC50 of `FC(F)(F)CN1CCN(CCn2c(C(F)(F)F)cc3c(Cl)ncnc32)CC1` is ___
## Result ≥ 100 µM

Data credit: patent US20240109903A1
